- Assay Target: T1, RAGE-Fc chimera protein (BioTechne, 1145-RG) (UniProt Q15109 24-344)
- T1 construct: Bought reagent; also called Fc-RAGE; not shown: CH domain of IgG (Fc)
- T1 sequence (Q15109 24-344, change not shown): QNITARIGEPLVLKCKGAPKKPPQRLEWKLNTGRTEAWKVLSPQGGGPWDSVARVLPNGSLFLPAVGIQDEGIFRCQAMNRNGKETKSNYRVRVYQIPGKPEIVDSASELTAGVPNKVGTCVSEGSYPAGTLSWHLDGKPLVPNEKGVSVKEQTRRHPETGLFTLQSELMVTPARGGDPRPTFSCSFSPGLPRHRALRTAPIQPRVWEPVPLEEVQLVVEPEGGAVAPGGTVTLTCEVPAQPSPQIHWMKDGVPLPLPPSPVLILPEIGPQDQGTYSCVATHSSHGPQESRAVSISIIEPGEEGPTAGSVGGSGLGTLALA
- Assay Remarks: hybrid ELISA: HMGB1 construct coated, RAGE-Fc titrated, anti-human IgG-HRP, OD450 normalized to DS-HMGB1; saturation fit
Attribute: pKd
Interpret pKd as the negative base-10 log of the concentration measured in mol/L.

binder="disulfide HMGB1, full-length (ligand, disulfide bond between Cys 22 and Cys 44, also called DS-HMGB1; FL-DS-HMGB1) GKGDPKKPRGKMSSYAFFVQTCREEHKKKHPDASVNFSEFSKKCSERWKTMSAKEKGKFEDMAKADKARYEREMKTYIPPKGETKKKFKDPNAPKRPPSAFFLFCSEYRPKIKGEHPGLSIGDVAKKLGEMWNNTAADDKQPYEKKAAKLKEKYEKDIAAYRAKGKPDAAKKGVVKAEKSKKKKEEEEDEEDEEDEEEEEDEEDEDEEEDDDDE" measurement_name=pKd recorded_result=8.36
binder="non-oxidizable 3S-HMGB1, full-length (1-214) (ligand, Biotinylated (c022) in BLI with CXCL12, His6-tagged in the reverse peptide array; also called 3S-FL HMGB1 (c022)) GKGDPKKPRGKMSSYAFFVQTSREEHKKKHPDASVNFSEFSKKSSERWKTMSAKEKGKFEDMAKADKARYEREMKTYIPPKGETKKKFKDPNAPKRPPSAFFLFSSEYRPKIKGEHPGLSIGDVAKKLGEMWNNTAADDKQPYEKKAAKLKEKYEKDIAAYRAKGKPDAAKKGVVKAEKSKKKKEEEEDEEDEEDEEEEEDEEDEDEEEDDDDE" measurement_name=pKd recorded_result=8.14

Q. Suppose we examine the binder DS-HMGB1 1-184 (ligand, oxidized Box A (disulfide Cys 22-Cys 44)) GKGDPKKPRGKMSSYAFFVQTCREEHKKKHPDASVNFSEFSKKCSERWKTMSAKEKGKFEDMAKADKARYEREMKTYIPPKGETKKKFKDPNAPKRPPSAFFLFCSEYRPKIKGEHPGLSIGDVAKKLGEMWNNTAADDKQPYEKKAAKLKEKYEKDIAAYRAKGKPDAAKKGVVKAEKSKKKK ; what pKd value has been reported?
A. 7.47
